Biological target: CFH18-20 (human complement factor H CCP18-20) with myc tag and His-tag (human) (UniProt P08603)
Sequence (P08603 1046-1231): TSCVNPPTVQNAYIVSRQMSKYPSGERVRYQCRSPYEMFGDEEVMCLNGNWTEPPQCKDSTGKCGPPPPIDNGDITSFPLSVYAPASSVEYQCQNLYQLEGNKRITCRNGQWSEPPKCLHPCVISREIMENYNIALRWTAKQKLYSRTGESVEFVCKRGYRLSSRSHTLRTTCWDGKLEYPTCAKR
Test: ITC; CFH18-20 in the cell (5-15 uM), VHH4 or mutants in the syringe (50-150 uM), 20 injections; PBS pH 7.4, 25 °C; iTC200
Observed property: Kd (nM)
Respond numerically; units are nM and should not be typed.

Completed entries (count: 3):
VHH4 G119A (VHH) VHH: QVQLVESGGGLVQAGGSLRLSCAASGLTVDDYAIGWFRQAPGKEREGVSCISSSNGSTYYADSVKGRFTISSDNAKNTAYLQMNSLKPEDTAVYYCAAAVSPNLECGTGPFGIYASYYAMDYWGQGTQVTVSS
7.26
VHH4 Y117A (VHH) VHH: QVQLVESGGGLVQAGGSLRLSCAASGLTVDDYAIGWFRQAPGKEREGVSCISSSNGSTYYADSVKGRFTISSDNAKNTAYLQMNSLKPEDTAVYYCAAAVSPNLECGTGPFGIYASAYGMDYWGQGTQVTVSS
5.87
VHH4 Y95A (VHH) VHH: QVQLVESGGGLVQAGGSLRLSCAASGLTVDDYAIGWFRQAPGKEREGVSCISSSNGSTYYADSVKGRFTISSDNAKNTAYLQMNSLKPEDTAVYACAAAVSPNLECGTGPFGIYASYYGMDYWGQGTQVTVSS
2.27

Looking for the measured Kd of VHH4 (VHH, alpaca VHH selected by phage display; CDR3 is Ala99-Tyr122; Disulfide bond between Cys50 and Cys106; also called VHH4 WT; WT; source: E. coli BL21 (DE3), purified (Ni-NTA, SEC)) VHH: QVQLVESGGGLVQAGGSLRLSCAASGLTVDDYAIGWFRQAPGKEREGVSCISSSNGSTYYADSVKGRFTISSDNAKNTAYLQMNSLKPEDTAVYYCAAAVSPNLECGTGPFGIYASYYGMDYWGQGTQVTVSS , can you help? 2.01
